Attribute: GI50
# Tested on: UACC-257
# assay-details: NCI tumour cell line growth inhibition, 48 h
Calls of active or inactive are those of the source. Cut-off read from the data, not from the text of the source: active = GI50 up to about 1.1 µM and inactive = higher.

1. CC1(C)OCC(C2OC(OC(=O)c3ccc([N+](=O)[O-])cc3)C3OC(C)(C)OC23)O1 (stereo not drawn)	> 100 µM (inactive)
2. CC1=C(OC2OC(CO)C(O)C(O)C2O)C(=O)C[C@H]2C1=CC[C@@H]1[C@@]2(C)C(=O)C[C@]2(C)[C@@H]([C@@](C)(O)C(=O)CCC(C)(C)O)[C@H](O)C[C@@]12C (stereo partly drawn)	> 100 µM (inactive)
3. CCC(C)(C)C1CCC2c3c([nH]c4ccccc34)C3C(=O)N(c4ccc(OC)cc4)C(=O)C3C2C1 (stereo not drawn)	34 µM (inactive)
4. CC(=O)c1c2c(cc3c1CC1(C3)Cc3cc4c(c(C(=O)O)c3C1)CCCC4)CCCC2.CC(N)c1ccccc1 (stereo not drawn)	30.9 µM (inactive)

Short answer for O=C1Nc2cccc(Cl)c2/C1=C\c1c(Cl)nc2sccn12 : GI50 was > 100 µM (inactive)

Kindly note the recorded GI50 for C[C@@]12C[C@@H](c3ccccc3O1)N1CCSC1=N2 , which is > 100 µM (inactive)

Entry CC(/C=N\NC(=S)N(C)C)=N/NC(=S)N(C)C ; GI50 = 2.61 µM (inactive)

Per the records, this compound ( CC(C)OCN/C(N)=N\C#N ) has GI50 equal to > 100 µM (inactive)

Each recorded value in this set is attributed to ChEMBL document CHEMBL1201862.
